variants and their reported screen value
B1: PIP5K1C peptide 640-655 (Phosphatidylinositol 4-phosphate 5-kinase type-1 gamma), 16-mer library wild type / TLN1 PTB (TLN1 Phosphotyrosine-binding (PTB) domain, residues 309-401) (parent)
chain 1: FPTDERSWVYSPLHYS
chain 2: GVSFFLVKEKMKGKNKLVPRLLGITKECVMRVDEKTKEVIQEWNLTNIKRWAASPKSFTLDFGDYQDGYYSVQTTEGEQIAQLIAGYIDIILK

variants of: B1; test: proteomic peptide phage display deep mutational scan (ProP-PD DMS): M13 P8 16-mer library selected against immobilised GST-tagged bait for four days (rounds), NGS of the eluted pools per day and pseudo-replica; settings: with TLN1 PTB (TLN1 Phosphotyrosine-binding (PTB) domain, residues 309-401); bait immobilised on MaxiSorp plates (10 µg), library pre-cleared on GST, 2 h binding at 4 °C, five washes; one round per day, days 1-4; value from days 2 and 3; keep out of graded; scale: average fractional NGS count over selection days 2 and 3

Below: 8 variants and their reported screen value.
{"columns": ["seq", "observed_measurement"],
 "data": [
  ["chain 1 FPTSERSWVYSPLHYS", 0.000264],
  ["chain 1 FPTDMRSWVYSPLHYS", 0.000263],
  ["chain 1 FPTDPRSWVYSPLHYS", 0.00165],
  ["chain 1 FPTDERSFVYSPLHYS", "7.15e-05"],
  ["chain 1 FPTDERSWVISPLHYS", 0.000546],
  ["chain 1 FPTDERSWVYSALHYS", 0.000632],
  ["chain 1 FPTDERSWVYSWLHYS", 0.000107],
  ["chain 1 FPTDERSWVYSHLHYS", "5.79e-05"]
]}

# input Param item = chain 1 FPTDERSWVYSPLDYS ; retrieve measured screen value.
# output 0.000394

# input Param item = chain 1 FPTDERSWVKSPLHYS ; retrieve measured screen value.
# output 0.00109

# input Param item = chain 1 FPTDERSWVYSVLHYS ; retrieve measured screen value.
# output 9.3e-05

# input Param item = chain 1 FPTDERSWVYSPLHLS ; retrieve measured screen value.
# output 3.79e-05

# input Param item = chain 1 FPTDERSWSYSPLHYS ; retrieve measured screen value.
# output 0.000334

# input Param item = chain 1 FPTDQRSWVYSPLHYS ; retrieve measured screen value.
# output 6.1e-05

# input Param item = chain 1 FPTDIRSWVYSPLHYS ; retrieve measured screen value.
# output 0.000716

# input Param item = chain 1 FPTDERSWVPSPLHYS ; retrieve measured screen value.
# output 0.000394

# input Param item = chain 1 FPTDERIWVYSPLHYS ; retrieve measured screen value.
# output 0.00143

# input Param item = chain 1 FPTDERSWVYSPLHYE ; retrieve measured screen value.
# output 0.000308

# input Param item = chain 1 FPTDERKWVYSPLHYS ; retrieve measured screen value.
# output 0.000214

# input Param item = chain 1 FPTDERWWVYSPLHYS ; retrieve measured screen value.
# output 0.000136

# input Param item = chain 1 FPTDEVSWVYSPLHYS ; retrieve measured screen value.
# output 0.000984

# input Param item = chain 1 FPTDERSWVYSPAHYS ; retrieve measured screen value.
# output 0.000116

# input Param item = chain 1 FPTDERMWVYSPLHYS ; retrieve measured screen value.
# output 0.000552

# input Param item = chain 1 FFTDERSWVYSPLHYS ; retrieve measured screen value.
# output 2.4e-05

# input Param item = chain 1 FPWDERSWVYSPLHYS ; retrieve measured screen value.
# output 0.000436

# input Param item = chain 1 FPTDERVWVYSPLHYS ; retrieve measured screen value.
# output 6.47e-05

# input Param item = chain 1 FPTDERSWVYSPLNYS ; retrieve measured screen value.
# output 3.05e-05

# input Param item = chain 1 FPTDERSWVYSPLHFS ; retrieve measured screen value.
# output 0.00152

# input Param item = chain 1 FPTDERSWDYSPLHYS ; retrieve measured screen value.
# output 0.000489

# input Param item = chain 1 FPTDERSWVYSPLPYS ; retrieve measured screen value.
# output 0.000231

# input Param item = chain 1 FPTDKRSWVYSPLHYS ; retrieve measured screen value.
# output 0.000102

# input Param item = chain 1 FPTTERSWVYSPLHYS ; retrieve measured screen value.
# output 0.000121

# input Param item = chain 1 FPTDERRWVYSPLHYS ; retrieve measured screen value.
# output 0.000434
